- TESTED_TARGET: EphrinB2-EphB2 (Homo sapiens)
- Construct: soluble human EphB1-His, EphB2-His, and EphB4-His ectodomains; commercially available human EphrinB1-Fc (EB1), EphrinB2-Fc (EB2), and EphrinB3-Fc (EB3) ectodomain proteins; purchased
- Sequence (P29323 19-543 limits assumed): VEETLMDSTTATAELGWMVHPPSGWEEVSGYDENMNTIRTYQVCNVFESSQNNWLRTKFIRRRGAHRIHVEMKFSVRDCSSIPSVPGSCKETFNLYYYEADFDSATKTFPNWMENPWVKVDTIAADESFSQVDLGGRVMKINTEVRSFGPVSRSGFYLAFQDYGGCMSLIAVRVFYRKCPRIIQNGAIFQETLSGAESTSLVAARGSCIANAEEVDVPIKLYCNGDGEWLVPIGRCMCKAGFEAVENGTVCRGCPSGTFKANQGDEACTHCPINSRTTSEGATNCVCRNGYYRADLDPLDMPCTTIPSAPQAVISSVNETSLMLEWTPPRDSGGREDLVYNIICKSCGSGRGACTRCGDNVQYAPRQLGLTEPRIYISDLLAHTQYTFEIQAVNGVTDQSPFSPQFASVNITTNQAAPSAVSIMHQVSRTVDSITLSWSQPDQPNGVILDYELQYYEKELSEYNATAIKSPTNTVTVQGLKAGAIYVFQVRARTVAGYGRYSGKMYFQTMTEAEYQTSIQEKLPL
- METHOD_SUMMARY: Octet tetramerization inhibition, immobilized human EphrinB2 binding to 50 nM soluble human EphB2
- MEASUREMENT_SETUP: Relative Association IC50 (300 sec), Table A, EphrinB2-EphB2
We begin with a simple list: items and their reported IC50.
MEASURED_QUANTITY: IC50

> print(dat)
                                   compound                  tested.target  test.result
1         COc1ccc2[nH]cc(C(=O)N3CCOCC3)c2c1  EphrinB2-EphB2 (Homo sapiens)    > 3200 nM
2  Cc1ccc2c(CN3CCN(c4ccc(Br)cc4)CC3)ccc(O)c2n1 [Compound 61]  EphrinB2-EphB2 (Homo sapiens)    > 1600 nM
3         Cc1ccc2c(CN3CCOCC3)cc(Br)c(O)c2n1  EphrinB2-EphB2 (Homo sapiens)    > 3200 nM
4  Oc1ccc(CN2CCN(c3ccccc3)CC2)c2cccnc12 [Compound 23]  EphrinB2-EphB2 (Homo sapiens)    > 1600 nM
5        O=S1(=O)CCN(Cc2ccc(O)c3ncccc23)CC1  EphrinB2-EphB2 (Homo sapiens)    > 1600 nM
6  COc1ccc2[nH]cc(C(=O)N3CCN(c4ccccc4OC)CC3)c2c1  EphrinB2-EphB2 (Homo sapiens)    > 1600 nM

This collection of values is drawn from patent US20260374739A1.
